Target: purified BACE1 enzyme (Homo sapiens, UniProt P56817)
Construct: purchased AnaSpec (Fremont, CA)
Sequence (P56817 46-501): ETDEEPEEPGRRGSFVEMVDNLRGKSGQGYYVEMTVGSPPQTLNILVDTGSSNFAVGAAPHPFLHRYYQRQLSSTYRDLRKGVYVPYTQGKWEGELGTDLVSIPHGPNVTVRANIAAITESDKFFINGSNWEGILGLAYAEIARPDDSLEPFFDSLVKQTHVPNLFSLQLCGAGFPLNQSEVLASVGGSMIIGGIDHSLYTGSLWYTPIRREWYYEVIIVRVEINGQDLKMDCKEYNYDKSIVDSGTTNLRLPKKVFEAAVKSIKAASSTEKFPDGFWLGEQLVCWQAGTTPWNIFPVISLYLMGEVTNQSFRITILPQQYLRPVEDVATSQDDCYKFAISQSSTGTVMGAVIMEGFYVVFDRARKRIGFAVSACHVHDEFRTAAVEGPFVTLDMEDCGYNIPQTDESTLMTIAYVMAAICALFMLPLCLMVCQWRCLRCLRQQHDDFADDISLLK
Assay notes: Activity test against purified BACE1 enzyme (cell-free, SensoLyte 520 β-secretase assay kit)
Format: biochemical
Applied conditions: cell-free assay of purified BACE1; mean of n = 3, except ANG-PEG-SI n = 2; CI 95% printed alongside; read-out: IC50 (concentration at which 50% of relative cleavage was achieved)
Experimental readout: IC50 (nM)
Entry rule: numbers only, all in nM.

Entry EVN-statine-VAEF-PEG-TFFYGGSRGKRNNFKTEEY [ANG-PEG-SI, ANG and SI joined by an inert poly(ethylene glycol) linker] , IC50 reported as 87.1

Where do these numbers come from? They come from paper PMC5041153.
